SUBJECT OF TEST: human GLP-1R (glucagon-like peptide-1 receptor) (human, UniProt P43220 24-463)
ASSAY EXPLANATION: cell-based or functional assay
*1 amine or outer side, *2 acyl side, *3 side chain or, on linkers, in order; H or OH if unused. Where no end group is shown, it is not given here. Side-chain parts run from the residue outwards. [ ]: non-standard residue; d: D form. The star is where a group is joined. C18 diacid = O=C(O)CCCCCCCCCCCCCCCCC(=O)*; γGlu = O=C(O)[C@H](CCC(=O)[*:2])N[*:1]; Decanoyl = CCCCCCCCCC(=O)*; AEEA = NCCOCCOCC(=O)O; Aib = CC(C)(N)C(=O)O
ATTRIBUTE MEASURED: EC50 (nM) GLP-1R

> print(dat)
                                     binder  unit.of.measurement  observed.result
1  H[Aib]DGTFISDYSTILDALAARDFINWLIQTKITK([AEEA-AEEA-γGlu-C18 diacid])-OH [Compound 28]                   nM             3.98
2  HADGTFTSDYST[Aib]LDKLAARDFINWLIQTKGKKNDWKHNITQK([AEEA-AEEA-γGlu-C18 diacid])-OH [Compound 27]                   nM             0.05
3  HADGTFTSDYSTILDK([AEEA-AEEA-γGlu-C18 diacid])LAARDFINWLIQTKGKKNDWKHNITQ-OH [Compound 21]                   nM             0.05
4  HADGTFTSDYSIILDK([AEEA-AEEA-γGlu-C18 diacid])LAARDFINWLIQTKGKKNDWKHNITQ-OH [Compound 20]                   nM             0.04
5  HADGTFTSDYST[Aib]LDK([AEEA-AEEA-γGlu-C18 diacid])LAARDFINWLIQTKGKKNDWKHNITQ-OH [Compound 22]                   nM             0.04
6  H[Aib]EGTFISDYSTILDNLAARDFINWLIQTKITK(Decanoyl)-NH2 [Compound 11]                   nM             39.8

Source: patent US20250304644A1
